tested on: DLD-1 colon; assay: NCI tumour cell line growth inhibition, 48 h
observable: TGI

C=C/C=C(\NC(=O)C(Cl)(Cl)Cl)[Si](C)(C)C: > 100 µM
CC(=O)O/N=C/c1ncccc1OC(C)=O: > 100 µM
Cc1ccc(NC(=O)NC(=O)c2ccc([N+](=O)[O-])cc2[N+](=O)[O-])cc1Oc1ncc(Cl)cn1: 12.5 µM
COc1ccc(/C(=N/NC(=O)NN)C(c2ccc(OC)cc2)C2(O)CNc3c(Cl)cc(Cl)cc32)cc1 (stereo not given): > 100 µM
CC1C[C@H](OC(N)=O)C(C)CC1=O (stereo not given in full): > 100 µM

----------
system: HL-60(TB) leukemia; assay: NCI tumour cell line growth inhibition, 48 h
Where a SMILES comes first, the peptide text is derived from it. [ ]: non-standard residue; d: D form. The star is where a group is joined. AllylGly = C=CC[CH](N)C(=O)O; Boc = CC(C)(C)OC(=O)*; OtBu = CC(C)(C)O*
The entries below come with measured TGI values attached.
observable: TGI

CCOC(=O)N1CCc2cc(OC)c(OC)c3c2C1CC3=O (stereo unspecified): > 100 µM
Clc1ccc(Oc2ccc(N=Cc3ccc(Cl)cc3Cl)cc2Cl)cc1: 57.6 µM
O=C1/C(=C\c2cccc(Oc3ccccc3)c2)S(=O)(=O)C(c2ccccc2)N1c1ccc(Cl)cc1 (stereo unspecified): 32.7 µM
COc1ccc2oc3c4c2c1CCC4CCC3=O (stereo unspecified): > 100 µM
C=CCC(NC(=O)C(CC(=O)OC(C)(C)C)NC(=O)OC(C)(C)C)C(=O)OC (stereo unspecified) (Boc-Asp(OtBu)-[AllylGly]-OMe; configuration not given here): 85.5 µM
COc1ccc2nc3ccc(OC)cc3c(S(=O)(=O)Cc3ccc([N+](=O)[O-])cc3)c2c1: > 100 µM
CCc1n[nH]c(=O)n1/N=C/c1ccccc1Cl: > 100 µM
CCCCCCCCCCCCCCCCCC1=NCCN1CS(=O)(=O)O: 39.9 µM
Cc1ccc(-c2nc(SCC(=O)O)n[nH]2)cc1: > 100 µM
CC(=O)C(=[N+]=[N-])C(=O)OC(C)(C)C#N: > 10 µM
CC1(C23CC4CC(CC(C4)C2)C3)n2c(=O)n(-c3ccccc3)c(=O)n2C1(C)C12CC3CC(CC(C3)C1)C2 (stereo unspecified): > 100 µM
C=C/C=C(\NC(=O)C(Cl)(Cl)Cl)[Si](C)(C)C: > 100 µM
Cc1ccc(NC(=O)NC(=O)c2ccc([N+](=O)[O-])cc2[N+](=O)[O-])cc1Oc1ncc(Cl)cn1: 0.584 µM
CCC1=CC2CN3CCc4c([nH]c5ccccc45)C(C(=O)OC)(C2)C13 (stereo unspecified): 125 µM
NC(=O)N1N=C2c3ccccc3CC[C@@H]2C1c1ccccc1 (stereo partly specified): > 100 µM
CN1C2(c3ccccc3)c3c(-c4ccccc4)sc(-c4ccccc4)c3C1(c1ccccc1)C1C(=O)N(c3ccccc3)C(=O)C12 (stereo unspecified): > 100 µM
CN1C2CC(=O)CC1[C@H](O)[C@@H]2O: > 100 µM
Cc1cccc2c1Oc1ccccc1C2NC(=O)c1ccc([N+](=O)[O-])cc1 (stereo unspecified): > 100 µM
COc1ccc(Nn2c(SCC(=O)Nc3nc(-c4ccc(Cl)cc4)cs3)nc(C)c2C)cc1: 59.1 µM
Cc1c(CCOC=O)c(=O)[nH]c2nncn12: > 100 µM
COc1nc(SC)nc2c1cnn2C1OC(C(O)CO)C(OC)C1O (stereo unspecified): > 100 µM
NC(=NCCCOc1ccc(Cl)cc1)Nc1ccc(Cl)cc1: 4.58 µM
Cc1cc(N(CCC#N)S(C)(=O)=O)ccc1C=O: > 100 µM
O=C(OCc1ccccc1)N1CCN(/[N+]([O-])=N/Oc2ccc([N+](=O)[O-])cc2[N+](=O)[O-])CC1: 57.3 µM
CCCn1c(SCC)c2ccccc2c1-c1nc(F)nc(F)n1: > 100 µM
O=c1[nH]c(=O)n(C2CC(O)C(CO)O2)cc1OCCCc1ccccc1 (stereo unspecified): > 100 µM
CCCCc1c2c(nc3c1CCCC3O)/C(=C/c1ccccc1)CCC2 (stereo unspecified): 43 µM
CN(C)CCNc1ccc2c(=O)n(CCN(C)C)c(=O)n3c4ccc([N+](=O)[O-])cc4c(=O)c1c23: 0.417 µM
Clc1ccc(SCCSCCCCCCCCCCSCCSc2ccc(Cl)cc2)cc1: > 100 µM
COc1ccc(-c2csc(=Nc3ccccc3)n2CC(O)c2ccc([N+](=O)[O-])cc2)cc1 (stereo unspecified): > 100 µM
COCC1CCCN1c1ccc(/C=C(/C#N)C(N)=S)cc1 (stereo unspecified): > 100 µM
N#Cc1c(-c2ccco2)cc(-c2ccc(NCc3nc4ccccc4[nH]3)cc2)nc1N: 47.3 µM
CCCCCCOc1ccc(C(=O)NOCc2ccccc2)cc1: > 100 µM
CC(C)(C)[Si](C)(C)OCC1OC(n2cnc3c(NC(=O)c4ccccc4)ncnc32)CC1O (stereo unspecified): 49.2 µM
CC(C)(C)NN=C1C(C)(C)C(=NNC(C)(C)C)C1(C)C: > 100 µM
C[C@]12CCC[C@H](Cl)C1(O)C[C@H](C(=O)O)CC2 (stereo partly specified): > 100 µM
O=C(O)C1C(C(=O)Nc2ccc3c(c2)Cc2ccccc2-3)C2(Cl)C(Cl)=C(Cl)C1(Cl)C2(Cl)Cl (stereo unspecified): 55.8 µM
CC(C)C1OC(=O)C=C1Sc1ccccc1 (stereo unspecified): > 100 µM
COc1cc(C2C(Cl)C(=O)N2NC(=O)c2ccccc2O)ccc1O (stereo unspecified): > 100 µM
O=C1NC(Cc2c[nH]c3ccccc23)C(=O)N2C(C3CCCCC3)c3[nH]c4ccccc4c3C[C@@H]12 (stereo partly specified): 42.9 µM
O=C1C(Br)=CC2(C=C1Br)CCN=c1c2c(O)c2nc3ccccc3c3ccnc1c23: 5.59 µM
